Reference source for all entries: patent US11945844B2

# ASSAY METHOD TEXT: Structural thermal stability (Tm)
# Type: physicochemical
REPORTED ENDPOINT: Tm (° C.) Structural thermal stability (°C)
API: value field is a number in °C; no unit string.

MOLECULE	Tm (° C.) Structural thermal stability [°C]
DM08: modified MNEI protein, SEQ ID NO:16, E2N/E23V/Y65K (protein, DM8) GNWEIIDIGPFTQNLGKFAVDEVNKIGQYGRLTFNKVIRPCMKKTIYENEGFREIKGYEYQLYVKASDKLFRADISEDYKTRGRKLLRFNGPVPPP	81
DM03: modified MNEI protein, SEQ ID NO: 15, E2N/I8T/N14K/E23A/Q28K/R31T/N35T/C41T/Y65K/S67N/R84L (protein, DM3) GNWEIIDTGPFTQKLGKFAVDEANKIGKYGTLTFTKVIRPTMKKTIYENEGFREIKGYEYQLYVKANDKLFRADISEDYKTRGLKLLRFNGPVPPP	81.5
DM09: modified MNEI protein, SEQ ID NO:17, E2N/E23A/Y65R (protein, DM9) GNWEIIDIGPFTQNLGKFAVDEANKIGQYGRLTFNKVIRPCMKKTIYENEGFREIKGYEYQLYVRASDKLFRADISEDYKTRGRKLLRFNGPVPPP	81

### Prompt Item DM11: modified MNEI protein, SEQ ID NO: 19, I8T/N14K/C41T/R84L (protein, DM11) GEWEIIDTGPFTQKLGKFAVDEENKIGQYGRLTFNKVIRPTMKKTIYENEGFREIKGYEYQLYVYASDKLFRADISEDYKTRGLKLLRFNGPVPPP : provide Tm (° C.) Structural thermal stability
### Response 69
